Form field: inhibition (one value per entry).
- subject of test: Dual specificity tyrosine-phosphorylation-regulated kinase 2 (Homo sapiens)
- test context: at 1 µM
# include the unit after the value

Past entries and their recorded results:
smiles structure | result
CCc1cccc(NC(=O)Nc2ccc(Oc3ccc4nc(NC(=O)OC)[nH]c4c3)cc2)c1 | 1.13%
COc1ccc(COc2ccc(Cc3cnc(N)nc3N)cc2OC)cc1 | 0.42%
CCn1c(-c2nonc2N)nc2c(C#CC(C)(C)O)nc(OC[C@@H](N)c3ccccc3)cc21 | -0.54%
CS(=O)(=O)CCNCc1ccc(-c2ccc3ncnc(Nc4ccc(OCc5ccccc5)c(Cl)c4)c3c2)o1 | 1.41%

// below: inhibition requested for another compound
What inhibition value was documented for this compound, "CS(=O)(=O)CCNCc1ccc(-c2ccc3ncnc(Nc4ccc(OCc5cccc(F)c5)c(C(F)(F)F)c4)c3c2)o1" ?
3.42%

###

Measured inhibition of individual entries
- subject of test: Tyrosine-protein kinase Srms (Homo sapiens)
- test context: at 0.1 µM
Note: unit % is implicit; provide only the numeric part.

Worked examples follow.
compound | unit of measurement | readout number
COc1ccc(COc2ccc(Cc3cnc(N)nc3N)cc2OC)cc1 | % | 1.82
CS(=O)(=O)Nc1ccc(N/C=C2\C(=O)Nc3ccccc32)cc1 | % | -2.57
Nc1nc(-c2ccc3c(c2)C(=Cc2cc(Br)c(O)c(Br)c2)C(=O)N3)cs1 | % | 9.94

What value of measured inhibition is listed for "CNC(=O)c1cncc(/C=C/c2c(Cl)cccc2Cl)c1" ?
1.5

Next entry: "[O-][S+]1CCN(Cc2ccc(-c3ccc4ncnc(Nc5ccc(OCc6ccccc6)c(F)c5)c4c3)o2)CC1"
-1.06

// next record COc1ccc2cc(-c3c(-c4ccncc4)nc(-c4ccc([S+](C)[O-])cc4)n3C)ccc2c1 (stereo unspecified)
-0.98

Further, for "COc1ccccc1Nc1ncc(-c2ccccc2)o1" ?
-1.24

Same read-out for "Fc1cccc(COc2ccc(Nc3ncnc4sc(-c5cccs5)cc34)cc2Cl)c1" ?
-1.04

###

Below, each of the compounds is paired with its reported inhibition value.
- subject of test: Ribosomal protein S6 kinase alpha-1 (Homo sapiens)
- test context: at 0.1 µM
Give just the numeric value; % need not be written.

smiles structure | readout number
COc1cc2ncn(-c3cc(O[C@@H](C)c4ccccc4Cl)c(C(N)=O)s3)c2cc1OC | 1.94
O=C1NC(=O)C(N2CCc3ccccc32)=C1c1ccc(Cl)cc1 | 1.94
Cc1cc(O)cc(C)c1/C=C/c1cncc(-c2nn[nH]n2)c1 | 2.97
CCn1c(-c2nonc2N)nc2ccncc21 | 0.57
CCCN1CCC(Oc2cc(Nc3nc(Nc4cccc(F)c4C(N)=O)c4cc[nH]c4n3)c(OC)cc2Cl)CC1 | 0.01

Now let's try a different one.
Requested read-out: inhibition. Entry: "COc1cc2ncn(-c3cc(OCc4ccccc4C(F)(F)F)c(C(N)=O)s3)c2cc1OC"
0.65

###

- subject of test: NT-3 growth factor receptor (Homo sapiens) (UniProt Q16288)
- Sequence (Q16288 32-839 limits assumed): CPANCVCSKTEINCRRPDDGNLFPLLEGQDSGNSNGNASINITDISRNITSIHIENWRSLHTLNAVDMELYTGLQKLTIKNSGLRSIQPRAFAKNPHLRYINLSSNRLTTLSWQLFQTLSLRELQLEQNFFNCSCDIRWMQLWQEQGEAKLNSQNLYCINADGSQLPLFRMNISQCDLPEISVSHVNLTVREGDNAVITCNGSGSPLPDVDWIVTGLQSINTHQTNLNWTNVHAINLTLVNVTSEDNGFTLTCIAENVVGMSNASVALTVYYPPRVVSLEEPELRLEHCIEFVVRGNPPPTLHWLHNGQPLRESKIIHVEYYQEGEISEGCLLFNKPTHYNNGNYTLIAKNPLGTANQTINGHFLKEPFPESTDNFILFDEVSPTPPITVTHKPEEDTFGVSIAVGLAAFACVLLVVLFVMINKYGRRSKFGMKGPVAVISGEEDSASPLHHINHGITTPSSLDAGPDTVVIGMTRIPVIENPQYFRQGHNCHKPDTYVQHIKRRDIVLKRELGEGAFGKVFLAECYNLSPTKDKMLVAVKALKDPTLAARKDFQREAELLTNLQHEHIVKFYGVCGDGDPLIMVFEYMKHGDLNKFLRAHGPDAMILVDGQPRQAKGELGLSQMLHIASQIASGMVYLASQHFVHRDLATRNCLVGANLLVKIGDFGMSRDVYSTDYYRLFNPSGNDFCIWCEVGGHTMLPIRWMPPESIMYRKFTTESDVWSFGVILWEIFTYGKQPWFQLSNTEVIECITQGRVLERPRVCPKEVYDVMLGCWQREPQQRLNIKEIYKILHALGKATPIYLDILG
- test context: at 0.1 µM
Reported inhibition values are given for each entry in this list.
I'd appreciate it if you included the unit after the number.

Some entries whose results are on file:
compound | inhibition
CC(C)=Cc1cccc2c1/C(=N/Nc1ccc(S(N)(=O)=O)cc1)C(=O)N2 | 23.6%
COc1cc2ncn(-c3cc(OCc4ccccc4Cl)c(C(N)=O)s3)c2cc1OC | 3.13%
CS(=O)(=O)CCNCc1nc(-c2ccc3ncnc(Nc4ccc(F)c(Cl)c4)c3c2)cs1 | 1.55%

What is its inhibition for NT-3 growth factor receptor (Homo sapiens) (UniProt Q16288)? Entry: "CCn1c(-c2nonc2N)nc2cncc(C(=O)N3CCNCC3)c21"
3.96%

One more compound: "Cc1ccc(C(=O)NC2CCCCC2)cc1-c1ccc(C(=O)NCC2CC2)cc1"
0.18%

And "COc1ccc(-c2nn3ncccc3c2-c2ccnc(Nc3ccc(Cl)c(C(F)(F)F)c3)n2)cc1" ?
-0.42%

Now the same for COc1ccc2cc(-c3c(-c4ccncc4)nc(-c4ccc([S+](C)[O-])cc4)n3C)ccc2c1 (stereo not given)
0.11%

Same again, this time with "CN(C)c1cc2c(Nc3ccc4nc(Cc5ccccc5)[nH]c4c3)ncnc2cn1"
3.93%

Queued: "O=C1NC(=O)C(c2cccc(Cl)c2)=C1Nc1ccc(O)c(Cl)c1"
-0.33%

And the next one, "NS(=O)(=O)c1cccc(-c2ccc3c(NC(=O)C4CC4)n[nH]c3c2)c1" ?
0.11%
